Kindly state Kd for each of the entries shown.
Molecular target: GmRLK08-1 LRR domain expressed in E. coli (soybean (Glycine max))
Assay: fluorescence polarisation; FITC-labelled peptides in 20 mM phosphate buffer pH 6.9 in a cuvette, 5 nM aliquots, increase in polarisation; baseline of non-CLE and non-LRR peptides subtracted; Kd from double reciprocal Scatchard plots; 3 repeats with 3 protein preparations; apparent for peptide L
No end group written: not given here.

1) AHEVPSGPNPISNR (not fully specified (N-terminus); also: labeled with FITC) [CLE peptide T]
204 nM
2) SKRRVPNGPDPIHNR (not fully specified (N-terminus); also: labeled with FITC) [CLE peptide 36]
52 nM
3) KRLSPSGPDPHHH (not fully specified (N-terminus); also: labeled with FITC) [CLE peptide N]
78 nM
4) KGLGLHEEELRTVPSGPDPLHHHVNPPRQPR (not fully specified (N-terminus); also: labeled with FITC) [CLE peptide 3L]
142 nM

Let's switch to this binder now.
[in] Read the entry RLAPGGPDPQHN (not fully specified (N-terminus); also: labeled with FITC) [CLE peptide 2] and write its reported Kd.
[out] 96 nM
